Test system: 873145-292-R-J1-PDC complex spheroid viability;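 further: spheroids exposed to compounds for 7 days before viability readout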
Assay: Anticancer human tumor 873145-292-R-J1-PDC patient-derived renal clear cell carcinoma cell line growth inhibition [POLQ]
Details: curve of first compound; second compound 10 µM
Protocol: Multicellular complex tumor spheroid response to Polymerase (POL) inhibitors (novobiocin, ART-558, RP6685) in combination with a variety of drugs and investigational agents in selected tumor cell lines The POL inhibitors (novobiocin, ART-558, and RP6685) were evaluated both individually and in combination with standard of care and investigational anticancer small molecules within a complex spheroid model of solid tumors. . […]
Reported IC50 values for a set of molecules

• CC(C)n1c(=O)n(C)c2cnc3cc(F)c(-c4ccc(OCCCN5CCCCC5)nc4)cc3c21 + COC1C(OC(N)=O)C(O)C(Oc2ccc3c(O)c(NC(=O)c4ccc(O)c(CC=C(C)C)c4)c(=O)oc3c2C)OC1(C)C = > 10 µM
• Nc1ccn(C2OC(CO)C(O)C2(F)F)c(=O)n1 (centres undefined) + Cc1cccc(N(C)C(=O)C2C(O)CCN2c2nc(C)cc(C(F)(F)F)c2C#N)c1 = > 10 µM
• CC(=O)O[C@H]1C(=O)[C@@]2(C)[C@H]([C@H](OC(=O)c3ccccc3)[C@]3(O)C[C@H](OC(=O)[C@H](O)[C@@H](NC(=O)c4ccccc4)c4ccccc4)C(C)=C1C3(C)C)[C@]1(OC(C)=O)CO[C@@H]1C[C@@H]2O + Nc1ccc(C#CCN(C(=O)Cc2ncc(C(F)(F)F)cc2C(F)(F)F)c2ccc(F)cc2)nn1 = > 3 µM

Recorded IC50 for COc1cccc(OCCCN)c1-c1cc(Nc2cnc(C#N)cn2)n[nH]1 + Nc1ccc(C#CCN(C(=O)Cc2ncc(C(F)(F)F)cc2C(F)(F)F)c2ccc(F)cc2)nn1 , please?
> 1 µM

Same for O=C(c1cc(Cc2n[nH]c(=O)c3ccccc23)ccc1F)N1CCN(C(=O)C2CC2)CC1 + Cc1cccc(N(C)C(=O)C2C(O)CCN2c2nc(C)cc(C(F)(F)F)c2C#N)c1
> 10 µM

Same for CC1COCCN1c1cc(C2(S(C)(=N)=O)CC2)nc(-c2ccnc3[nH]ccc23)n1 (centres undefined) + COC1C(OC(N)=O)C(O)C(Oc2ccc3c(O)c(NC(=O)c4ccc(O)c(CC=C(C)C)c4)c(=O)oc3c2C)OC1(C)C
> 10 µM

Same for CCc1c2c(nc3ccc(O)cc13)-c1cc3c(c(=O)n1C2)COC(=O)[C@]3(O)CC + COC1C(OC(N)=O)C(O)C(Oc2ccc3c(O)c(NC(=O)c4ccc(O)c(CC=C(C)C)c4)c(=O)oc3c2C)OC1(C)C
0.0829 µM

Same for CCCS(=O)(=O)Nc1ccc(F)c(C(=O)c2c[nH]c3ncc(-c4ccc(Cl)cc4)cc23)c1F + COC1C(OC(N)=O)C(O)C(Oc2ccc3c(O)c(NC(=O)c4ccc(O)c(CC=C(C)C)c4)c(=O)oc3c2C)OC1(C)C
> 10 µM

Same for CC(=O)O[C@H]1C(=O)[C@@]2(C)[C@H]([C@H](OC(=O)c3ccccc3)[C@]3(O)C[C@H](OC(=O)[C@H](O)[C@@H](NC(=O)c4ccccc4)c4ccccc4)C(C)=C1C3(C)C)[C@]1(OC(C)=O)CO[C@@H]1C[C@@H]2O + Cc1cccc(N(C)C(=O)C2C(O)CCN2c2nc(C)cc(C(F)(F)F)c2C#N)c1
> 3 µM
